From: a melting point compilation (Tetko et al.; mined from patent text by program, amines drawn as free bases though some values may be those of a salt)

Listing of recorded melting point by entry.
measurement label: melting point

compound=O=C(O)c1cn([C@@H]2C[C@@H]2F)c2cc(F)ccc2c1=O result="302 to 305 °C"
compound=COc1ccc(-c2c(C(=O)O)c(CSc3nccn3C)nc3cc(OC)c(OC)cc23)cc1OC result="213 to 214 °C"
compound=O=C(CN1CCOCC1)N[C@@H](Cc1ccccc1)[C@@H](O)[C@H](O)[C@H](Cc1ccccc1)NC(=O)CN1CCOCC1 result="172 to 177 °C"
compound="CCc1nc2c(C)cc(C)nc2n1Cc1ccc(C(c2ccccc2)C(CO)c2nnn[nH]2)cc1 (centres undefined)" result="128 to 132 °C"
compound=CC1(C)OC[C@H](CON2C(=O)c3ccccc3C2=O)O1 result="100 to 102 °C"
compound=COc1ccc(CCCC(CC(=O)O)CC(=O)O)cc1 result="71 to 73 °C"
compound=Fc1ccc2c(C3CCN(CCCOc4ccccc4)CC3)noc2c1 result="78 to 80 °C"
compound=Cc1nc2c(N)nc3ccncc3c2n1C result="330 to 335 °C"
compound=NCc1cc2c(Oc3ccc(Cl)cc3)cncc2s1 result="78.6 to 79.8 °C"
compound=CCCCCS(=O)(=O)NC(=O)/C=C/c1cc(C(C)(C)C)nn1Cc1ccc(C(F)(F)F)cc1Cl result="147 to 148 °C"
compound="COC(=O)C(C)(C)COc1ccc(CNC(=O)C2Cc3ccccc3N2S(=O)(=O)c2ccc(-c3ccccc3C(F)(F)F)cc2)cc1 (centres undefined)" result="68 to 75 °C"
compound=N#Cc1nn(-c2c(Cl)cc(C(F)(F)F)cc2Cl)cc1C1CC1 result="124 °C"
compound="O=C(O)c1ccccc1NC1CCOC1=O (centres undefined)" result="197 to 198 °C"
compound=O=C(c1cccc(OCCCN2C(=O)c3ccccc3C2=O)c1)N1CCCCC1 result="120 to 122 °C"
compound=CCc1nc2c(C)cc(C)nc2n1Cc1ccc(-c2ccccc2-c2nc(=O)o[nH]2)cc1 result="149 to 152 °C"
compound=CC(=O)Nc1nc2c(Oc3cc(-c4ccc(C(F)(F)F)cc4)ncn3)cccc2s1 result="219 to 220 °C"
compound="COc1ncc(CN2C(=O)C3(COc4cc5c(cc43)CCO5)c3ccccc32)cn1 (centres undefined)" result="203 to 204 °C"
compound=CCCCCc1c(C(C)C)nc(C(C)C)c(CO)c1-c1ccoc1 result="98 to 100 °C"
compound=CN1Cc2c(-c3nc(CCl)cs3)ncn2-c2ccc(F)c(Cl)c2C1=O result="234 to 235 °C"

----------
Listing of recorded melting point by entry.
measurement label: melting point

molecule=CC1(Br)C(Br)=C(Br)C(Br)=C1Br result="60 to 61 °C"
molecule="Cc1cc2n(c1C(=O)c1cccs1)CCC2C(=O)O (stereo not given)" result="166 °C"
molecule=O=C(Oc1c(F)c(F)c(F)c(F)c1F)c1ccccn1 result="62 to 64 °C"
molecule="COCC1CN(c2ccc(C3CCC(=C(C)C)CC3)cc2)C(=O)O1 (racemic)" result="89 to 91 °C"
molecule="CCOC1CN(CC=CC(=O)Nc2cc3c(Nc4cccc(Br)c4)ncnc3cc2OC)CC(OCC)O1 (stereo not given)" result="133 to 138 °C"
